# Test system: TOP10 E. coli − bcrA
# test_method_notes: MIC determination by microtitre broth dilution method, TOP10 E. coli − bcrA
# Assay type: cell-based, Escherichia coli
# conditions_used: antibiotic 0.25 μg/ml; 24 h at 37° C.
measure_name: Growth of TOP10 E. coli − bcrA

molecular_string	recorded_value
CCn1cc(C(=O)O)c(=O)c2ccc(C)nc21	+
CN(C)[C@@H]1C(O)=C(C(N)=O)C(=O)[C@@]2(O)C(O)=C3C(=O)c4c(O)cccc4[C@@](C)(O)[C@H]3C[C@@H]12	+
O=C(O)c1cn(C2CC2)c2cc(N3CCNCC3)c(F)cc2c1=O	−
N=C(NCCCCCCNC(=N)NC(=N)Nc1ccc(Cl)cc1)NC(=N)Nc1ccc(Cl)cc1	+

###

# Test system: TOP10 E. coli − bcrA
# test_method_notes: MIC determination by microtitre broth dilution method, TOP10 E. coli − bcrA
# Assay type: cell-based, Escherichia coli
# conditions_used: antibiotic 1 μg/ml; 24 h at 37° C.
# Protocol: MIC Determination by Microtitre Broth Dilution Method TOP10 E. coli with or without (O) bcrA were grown to a concentration of 2×10^4 cfu/ml (bcrA+was grown in the presence of 100 μg/ml ampicillin to select for the pBAD-TOPO vector) in RPMI medium (Sigma) in the presence of 0.002% L-arabinose, as the inducer of the bcrA gene. […] The plates were incubated for 24 h at 37° C. and scored by growth or no growth.

molecular_string	Growth of TOP10 E. coli − bcrA
CCn1cc(C(=O)O)c(=O)c2ccc(C)nc21	+
N=C(NCCCCCCNC(=N)NC(=N)Nc1ccc(Cl)cc1)NC(=N)Nc1ccc(Cl)cc1	+
CN(C)[C@@H]1C(O)=C(C(N)=O)C(=O)[C@@]2(O)C(O)=C3C(=O)c4c(O)cccc4[C@@](C)(O)[C@H]3C[C@@H]12	+
O=C(O)c1cn(C2CC2)c2cc(N3CCNCC3)c(F)cc2c1=O	−

###

# Tested on: TOP10 E. coli + bcrA
# test_method_notes: MIC determination by microtitre broth dilution method, TOP10 E. coli + bcrA
# Type: cell-based, Escherichia coli
# conditions_used: antibiotic 8 μg/ml; 24 h at 37° C.
measure_name: Growth of TOP10 E. coli + bcrA

compound	assayed_target	measure_name	recorded_value
CCn1cc(C(=O)O)c(=O)c2ccc(C)nc21 [Nalidixic Acid]	TOP10 E. coli + bcrA	Growth of TOP10 E. coli + bcrA	+
CN(C)[C@@H]1C(O)=C(C(N)=O)C(=O)[C@@]2(O)C(O)=C3C(=O)c4c(O)cccc4[C@@](C)(O)[C@H]3C[C@@H]12 [Tetracycline]	TOP10 E. coli + bcrA	Growth of TOP10 E. coli + bcrA	−
N=C(NCCCCCCNC(=N)NC(=N)Nc1ccc(Cl)cc1)NC(=N)Nc1ccc(Cl)cc1 [Chlorohexadine]	TOP10 E. coli + bcrA	Growth of TOP10 E. coli + bcrA	+
O=C(O)c1cn(C2CC2)c2cc(N3CCNCC3)c(F)cc2c1=O [Ciprofloxacin]	TOP10 E. coli + bcrA	Growth of TOP10 E. coli + bcrA	−

###

# System: TOP10 E. coli − bcrA
# test_method_notes: MIC determination by microtitre broth dilution method, TOP10 E. coli − bcrA
# Assay type: cell-based, Escherichia coli
# conditions_used: antibiotic 0.5 μg/ml; 24 h at 37° C.

molecule	Growth of TOP10 E. coli − bcrA
N=C(NCCCCCCNC(=N)NC(=N)Nc1ccc(Cl)cc1)NC(=N)Nc1ccc(Cl)cc1 [Chlorohexadine]	+
O=C(O)c1cn(C2CC2)c2cc(N3CCNCC3)c(F)cc2c1=O [Ciprofloxacin]	−
CCn1cc(C(=O)O)c(=O)c2ccc(C)nc21 [Nalidixic Acid]	+
CN(C)[C@@H]1C(O)=C(C(N)=O)C(=O)[C@@]2(O)C(O)=C3C(=O)c4c(O)cccc4[C@@](C)(O)[C@H]3C[C@@H]12 [Tetracycline]	+

###

# System: TOP10 E. coli − bcrA
# test_method_notes: MIC determination by microtitre broth dilution method, TOP10 E. coli − bcrA
# Format: cell-based, Escherichia coli
# conditions_used: antibiotic 4 μg/ml; 24 h at 37° C.
# Experimental: MIC Determination by Microtitre Broth Dilution Method TOP10 E. coli with or without (O) bcrA were grown to a concentration of 2×10^4 cfu/ml (bcrA+was grown in the presence of 100 μg/ml ampicillin to select for the pBAD-TOPO vector) in RPMI medium (Sigma) in the presence of 0.002% L-arabinose, as the inducer of the bcrA gene. […] The plates were incubated for 24 h at 37° C. and scored by growth or no growth.

molecule	Growth of TOP10 E. coli − bcrA
CCn1cc(C(=O)O)c(=O)c2ccc(C)nc21 [Nalidixic Acid]	−
CN(C)[C@@H]1C(O)=C(C(N)=O)C(=O)[C@@]2(O)C(O)=C3C(=O)c4c(O)cccc4[C@@](C)(O)[C@H]3C[C@@H]12 [Tetracycline]	−
N=C(NCCCCCCNC(=N)NC(=N)Nc1ccc(Cl)cc1)NC(=N)Nc1ccc(Cl)cc1 [Chlorohexadine]	+
O=C(O)c1cn(C2CC2)c2cc(N3CCNCC3)c(F)cc2c1=O [Ciprofloxacin]	−

These entries and their values trace back to patent US7037495B1.
